Assay: Tmax in KK-AY/Ta mouse at 100 mg/kg, sc
Assay type: ADME, organism-based
Conditions: in vivo

{"smiles.code": "COc1cc(CN(C)C(=O)c2c(OCCCC3CCN(C(=O)OC4(C)CC4)CC3)c3cccnc3n(C)c2=O)cc(C(F)(F)F)c1", "unit.abbreviation": "h", "Tmax": 8}

====

Test: Cmax in KK-AY/Ta mouse at 100 mg/kg, po
Type: ADME, organism-based
Design: dose 100 mg/kg, route oral
Conditions: in vivo
recorded.endpoint: Cmax (ng/mL)

{"smiles.code": "COc1cc(CN(C)C(=O)c2c(OCCCC3CCN(C(=O)OC4(C)CC4)CC3)c3cccnc3n(C)c2=O)cc(C(F)(F)F)c1", "recorded.result": 6500}
